study.system: IGF2 (Homo sapiens, UniProt P01344)
Sequence (P01344 25-91): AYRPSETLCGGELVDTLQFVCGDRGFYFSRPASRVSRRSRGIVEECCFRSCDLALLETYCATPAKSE
method.description: SPR (Biacore T200) of recombinant IGF2R domain 11 mutants on immobilised biotinylated IGF2
Type: binding
Set-up: purchased GroPep
condition.info: Table 2
property: Kinetics koff (s⁻¹)
Use s⁻¹ as the unit, but write only the number.

In the examples that follow, each entry is paired with its recorded Kinetics koff.
AB3 Q1569R: domain 11 AB3 + CD loop Q1569R (protein) MKSNEHDDCQVTNPSTGHLFDLSSLSGRAGFTAAYSKSGVVYMSICGENENCPPGVGACFGRTRISVGKANKRLRYVDQVLQLVYKDGSPCPSKSGLSYKSVISFVCRPEAGPTNRPMLISLDKQTCTLFFSWHTPLACEQATECSV | 0.031
WT + 23D (HI-HFQS): wild-type domain 11 with HI loop 1630-1633 HFQS (clone 23D) (protein) MKSNEHDDCQVTNPSTGHLFDLSSLSGRAGFTAAYSEKGLVYMSICGENENCPPGVGACFGQTRISVGKANKRLRYVDQVLQLVYKDGSPCPSKSGLSYKSVISFVCRPEAGPTNRPMLISLHFQSCTLFFSWHTPLACEQATECSV | 0.065

Consider the record given below.
Could you please provide reported Kinetics koff for AB5 + 51F (HI-NRQS): domain 11 AB5 with HI loop NRQS (clone 51F) (protein) MKSNEHDDCQVTNPSTGHLFDLSSLSGRAGFTAAYAKGWGVYMSICGENENCPPGVGACFGQTRISVGKANKRLRYVDQVLQLVYKDGSPCPSKSGLSYKSVISFVCRPEAGPTNRPMLISLNRQSCTLFFSWHTPLACEQATECSV ? Thanks!
0.10
